Tested on: CAKI-1 renal
experimentalProtocol: NCI tumour cell line growth inhibition, 48 h
readoutKind: GI50

compound=Cc1ccc2nc3c(nc2c1)c1cc(I)ccc1n3CCN(C)C result="3.78 µM"
compound="C=C1CC[C@@H]2[C@]3(C)COC(c4cn[nH]c4-c4ccc(OC)cc4)O[C@@H]3CC[C@@]2(C)[C@@H]1C/C=C1/C(=O)OCC1O (some centres undefined)" result="2.96 µM"
compound=O=C(Cc1c(-c2ccccc2[N+](=O)[O-])n(-c2ncnc3c2c(-c2ccccc2)c(-c2ccccc2)n3Cc2ccccc2)[nH]c1=O)c1ccc(Cl)c(Cl)c1 result="15.7 µM"
compound=Nc1nn2c(-c3cc4cc(Br)ccc4oc3=O)ccnc2c1N=Nc1ccccc1 result="5.55 µM"
